Origin of measurements: ChEMBL document CHEMBL1157539

# Tested on: Plasmodium falciparum
# test_name: GSK_TCMDC: Inhibition of Plasmodium falciparum Dd2 in whole red blood cells, using parasite LDH activity as an index of growth. Test compounds present at 2uM
# Assay type: functional
Catalogue of Inhibition readings, one per entry.
recorded_metric: Inhibition (%)

INSERT INTO results (molecule, recorded_metric, reading) VALUES
  ('Cl.Oc1cccc(-c2nc3cc(C4=NC5CCCCC5N4)ccc3[nH]2)c1 (stereo not drawn)', 'Inhibition', 97),
  ('Cc1cccc(CNc2nc(C)cc(NCCC(=O)Nc3ccccc3)n2)c1.O=C(O)C(F)(F)F', 'Inhibition', 54),
  ('CCOc1ccc2c(=NN=Cc3c4ccccc4cc4ccccc34)cc(C)[nH]c2c1', 'Inhibition', 94),
  ('C=CCN1C(=O)CN(S(=O)(=O)c2ccc(-n3nc(C)cc3C)cc2)C1=S', 'Inhibition', 0),
  ('Cc1ccc(Nc2nc(N/N=C/c3cccc(O)c3)nc(Nc3ccc([N+](=O)[O-])cc3)n2)cc1C', 'Inhibition', 69),
  ('CC(=O)Nc1cccc(CNCc2ccc(-c3cnc(N4CCCC(C)(C)C4)nc3)cc2)c1.O=CO', 'Inhibition', 75),
  ('COc1ccc(O)c(C(=O)c2cc(C#N)c(=O)n(-c3ccc(Oc4ccccc4)cc3)c2)c1', 'Inhibition', 20),
  ('O=C(Nc1ccc(OC2CCN(Cc3ccc(F)cc3)CC2)c(Cl)c1)c1ccc(F)cc1.O=C(O)C(F)(F)F', 'Inhibition', 95);

###

# Tested on: HepG2
# test_name: GSK_TCMDC: Percent inhibition of human HepG2 cell line. Test compounds present at 10uM.
# Assay type: functional
Please mark true if the recorded Inhibition is equal to or greater than 1%, and false if it falls below.

INSERT INTO results (test_smiles, cat) VALUES
  ('O=C(Nc1cccc(-c2cccc(-c3nc4ccccc4[nH]3)c2)c1)c1ccoc1', 'true'),
  ('CN(c1ccc2c(c1)nc(Nc1ccc(Cl)cc1)n2C)c1ccnc(Nc2ccc(CS(C)(=O)=O)cc2)n1.Cl', 'true'),
  ('COc1ccc(CNc2nc(Nc3cccc(C#N)c3)nc(Nc3cccc(C#N)c3)n2)cc1Cl', 'false'),
  ('CCOC(=O)c1ccc(N2CCN(c3cc(Cl)ccc3C)CC2)c(NC(=O)Nc2ccc(Cl)c(Cl)c2)c1', 'true');

###

# Tested on: Plasmodium falciparum
# test_name: GSK_TCMDC: Inhibition of Plasmodium falciparum 3D7 in whole red blood cells, using parasite LDH activity as an index of growth. Test compounds present at 2uM
# Format: functional
recorded_metric: Inhibition

INSERT INTO measurements (compound, reading) VALUES
  ('Br.Fc1ccc(C2N=C(SCCSC3=NC(c4ccc(F)cc4)C(c4ccc(F)cc4)N3)NC2c2ccc(F)cc2)cc1 (stereo not drawn)', '99%'),
  ('CN(C)c1ccc(-c2ccc(C(=O)NC3CCN(Cc4ccc5c(c4)OCCO5)CC3)s2)cc1.O=C(O)C(F)(F)F', '100%'),
  ('CCc1c(C)nc(-n2nc(C)cc2NC(=O)C2c3ccccc3Oc3ccccc32)[nH]c1=O', '89%');
